# system under test: Recombinant CYP2A6 (Homo sapiens, UniProt P11509)
# Sequence (P11509 whole entry): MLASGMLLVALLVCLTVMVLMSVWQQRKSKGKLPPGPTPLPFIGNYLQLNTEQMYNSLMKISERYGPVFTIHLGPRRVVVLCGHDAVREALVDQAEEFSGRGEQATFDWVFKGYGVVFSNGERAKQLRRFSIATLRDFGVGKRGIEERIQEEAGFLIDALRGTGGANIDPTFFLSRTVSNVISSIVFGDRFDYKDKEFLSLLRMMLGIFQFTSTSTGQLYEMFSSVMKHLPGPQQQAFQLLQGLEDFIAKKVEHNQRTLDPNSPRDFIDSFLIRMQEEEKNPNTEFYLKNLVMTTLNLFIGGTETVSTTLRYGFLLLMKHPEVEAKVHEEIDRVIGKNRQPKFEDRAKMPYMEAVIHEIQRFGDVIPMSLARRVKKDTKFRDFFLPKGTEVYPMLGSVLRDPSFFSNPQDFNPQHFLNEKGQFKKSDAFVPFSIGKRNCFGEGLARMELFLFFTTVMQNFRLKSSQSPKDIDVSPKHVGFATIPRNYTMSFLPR
# assay explanation: Inhibition of recombinant CYP2A6
measurement type: pIC50
Answers are plain numbers, as −log10 of the molar value.

// returns reported pIC50 for input `CC/C(=C(/c1ccc(O)cc1)c1ccc(OCCN)cc1)c1ccc(O)cc1`
5.17

###

# system under test: recombinant human ER-α (Homo sapiens)
# Sequence (P03372 1-595): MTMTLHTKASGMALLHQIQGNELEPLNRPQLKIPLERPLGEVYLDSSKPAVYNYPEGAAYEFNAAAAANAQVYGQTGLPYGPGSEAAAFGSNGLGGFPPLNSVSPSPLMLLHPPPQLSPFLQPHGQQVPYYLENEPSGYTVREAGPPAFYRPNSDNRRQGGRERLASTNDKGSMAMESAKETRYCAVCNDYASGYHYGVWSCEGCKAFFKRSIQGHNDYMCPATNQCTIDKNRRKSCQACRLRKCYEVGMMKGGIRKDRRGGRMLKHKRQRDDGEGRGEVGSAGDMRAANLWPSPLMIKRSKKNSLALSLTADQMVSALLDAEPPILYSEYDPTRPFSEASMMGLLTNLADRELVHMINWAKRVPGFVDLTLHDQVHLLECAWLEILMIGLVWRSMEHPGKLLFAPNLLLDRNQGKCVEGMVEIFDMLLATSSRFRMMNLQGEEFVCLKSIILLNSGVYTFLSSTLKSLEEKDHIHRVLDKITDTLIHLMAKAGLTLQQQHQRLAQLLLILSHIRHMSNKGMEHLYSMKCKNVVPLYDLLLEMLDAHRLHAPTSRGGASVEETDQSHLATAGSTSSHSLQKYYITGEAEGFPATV
# assay explanation: ER-α competitor binding assay, fluorescence polarization, displacement of ES2
# test settings: at the concentration of 100,000 nM
measurement type: Percent ER competition, ER-α (% competition)
Numbers only, in % competition.

For orientation, consider the following solved cases.
CC/C(=C(/c1ccc(O)cc1)c1ccc(OCCBr)cc1)c1ccccc1 :: 60
NCCOc1ccc(/C(=C(\Cn2ccnc2)c2ccccc2)c2ccc(O)cc2)cc1 :: 59

List Percent ER competition, ER-α for every entry below, keeping the order given.
1. CC/C(=C(/c1ccc(O)cc1)c1ccc(OCCO)cc1)c1ccccc1
2. CC/C(=C(/c1ccc(O)cc1)c1ccc(OCCCl)cc1)c1ccccc1 [Compound 55a]
3. N#CC/C(=C(/c1ccc(O)cc1)c1ccc(OCCN)cc1)c1ccccc1
4. CC(C)/C(=C(/c1ccc(O)cc1)c1ccc(OCCN)cc1)c1ccccc1 [Compound 29d]
5. CC/C(=C(/c1ccc(O)cc1)c1ccc(OCC(=O)O)cc1)c1ccccc1

62
62
48
54
55

Value lookup for Percent ER competition, ER-α; key = `CC/C(=C(/c1ccccc1)c1ccc(OCCN)cc1)c1ccccc1`
0
